Assay: aqueous solubility at various pH
Format: physicochemical
Settings: aqueous medium, pH 3.27, aqueous buffer; pH of about 3.27
Non-standard residues stand in square brackets, D forms with d. Residues, ends and D or L forms follow the SMILES beside them. Dopa = N[C@@H](Cc1ccc(O)c(O)c1)C(=O)O
Property: solubility

Request: Fill in: solubility of N[C@@H](Cc1ccc(O)c(O)c1)C(=O)N[C@@H](Cc1ccc(O)cc1)C(=O)O [Form N] (H-[Dopa]-Tyr-OH) is ___
Response: ~2860 µg/mL

###

Assay: aqueous solubility at various pH
Assay type: physicochemical
Details: aqueous medium, pH 3.83, aqueous buffer; pH of about 3.83
Non-standard residues stand in square brackets, D forms with d. Residues, ends and D or L forms follow the SMILES beside them. Dopa = N[C@@H](Cc1ccc(O)c(O)c1)C(=O)O
Property: solubility

Request: Fill in: solubility of N[C@@H](Cc1ccc(O)c(O)c1)C(=O)N[C@@H](Cc1ccc(O)cc1)C(=O)O [Form N] (H-[Dopa]-Tyr-OH) is ___
Response: ~1640 µg/mL

###

Assay: aqueous solubility at various pH
Assay type: physicochemical
Conditions: aqueous solution, pH 10.26, aqueous buffer; pH of about 10.26
Non-standard residues stand in square brackets, D forms with d. Residues, ends and D or L forms follow the SMILES beside them. Dopa = N[C@@H](Cc1ccc(O)c(O)c1)C(=O)O
Property: solubility

Request: Fill in: solubility of N[C@@H](Cc1ccc(O)c(O)c1)C(=O)N[C@@H](Cc1ccc(O)cc1)C(=O)O [Form N] (H-[Dopa]-Tyr-OH) is ___
Response: ~155 mg/mL

###

Test: aqueous solubility at various pH
Type: physicochemical
Conditions: aqueous solution, pH 1.17, simulated gastric fluid; pH of about 1.17
Non-standard residues stand in square brackets, D forms with d. Residues, ends and D or L forms follow the SMILES beside them. Dopa = N[C@@H](Cc1ccc(O)c(O)c1)C(=O)O
Property: solubility

Request: Fill in: solubility of N[C@@H](Cc1ccc(O)c(O)c1)C(=O)N[C@@H](Cc1ccc(O)cc1)C(=O)O [Form N] (H-[Dopa]-Tyr-OH) is ___
Response: ~184 mg/mL

###

Experiment: aqueous solubility at various pH
Assay type: physicochemical
Settings: aqueous solution, pH 9.43, aqueous buffer; pH of about 9.43
Non-standard residues stand in square brackets, D forms with d. Residues, ends and D or L forms follow the SMILES beside them. Dopa = N[C@@H](Cc1ccc(O)c(O)c1)C(=O)O
Property: solubility

Request: Fill in: solubility of N[C@@H](Cc1ccc(O)c(O)c1)C(=O)N[C@@H](Cc1ccc(O)cc1)C(=O)O [Form N] (H-[Dopa]-Tyr-OH) is ___
Response: ~58.7 mg/mL

###

Assay: aqueous solubility at various pH
Type: physicochemical
Settings: aqueous solution, pH 2.6, aqueous buffer; pH of about 2.60
Non-standard residues stand in square brackets, D forms with d. Residues, ends and D or L forms follow the SMILES beside them. Dopa = N[C@@H](Cc1ccc(O)c(O)c1)C(=O)O
Property: solubility

Request: Fill in: solubility of N[C@@H](Cc1ccc(O)c(O)c1)C(=O)N[C@@H](Cc1ccc(O)cc1)C(=O)O [Form N] (H-[Dopa]-Tyr-OH) is ___
Response: ~9460 µg/mL
